System: HEK-293T
Assay: Multiplex assay against HEK293T
Type: toxicity, cell-based
Settings: human, 12 h, 1 µM, compound concentration 1 uM, number of replicates 2
Mark each entry Criterion met if its Population Normal (%) sits below 90%, and Criterion not met for all others.

Past entries and their recorded results:
>  <molecule>
COC(=O)c1ccc2c(c1)NC(=O)/C2=C(\Nc1ccc(-c2nccn2C)cc1)c1ccccc1

>  <experimental_target>
HEK-293T

>  <classification>
Criterion not met

$$$$
>  <molecule>
CC(=O)N(CCN(C)C)c1ccc(N/C(=C2\C(=O)Nc3cc(Cl)ccc32)c2ccccc2)cn1

>  <experimental_target>
HEK-293T

>  <classification>
Criterion not met

$$$$
>  <molecule>
Cn1cc(-c2ccc(N(C(=O)NCc3ccccc3)[C@H]3CC[C@H](Nc4ccc(C#N)cn4)CC3)cc2)ccc1=O

>  <experimental_target>
HEK-293T

>  <classification>
Criterion not met

$$$$

Query string: Does the reported Population Normal (%) of the following molecule sit strictly below 90%? CN1CCN(C(=O)Cc2ccc(N/C(=C3\C(=O)Nc4cc(Cl)ccc43)c3ccccc3)cc2)CC1
Result string: Criterion not met

Query string: And then CC(C)(C)c1cnc(CSc2cnc(NC(=O)C3CCN(CC(=O)NCCOCCOCCOCCNc4cccc5c4C(=O)N(C4CCC(=O)NC4=O)C5=O)CC3)s2)o1 (configuration not stated) , what is it?
Result string: Criterion met

----------
Recorded Population Normal (%), one value per entry.
Test system: Fibroblast
Test: Multiplex assay against human fibroblast
Type: toxicity, cell-based
Conditions: 12 h, 10 µM, compound concentration 10 uM, number of replicates 2
Give the value in % but do not write % after it.

// solved cases for Population Normal (%) follow
>  <compound>
N[C@@H]1c2cccnc2[C@H](OC(=O)N2CCC(n3c(=O)[nH]c4ncccc43)CC2)CC[C@H]1c1cccc(F)c1F [RIMEGEPANT]

>  <Population Normal (%)>
100

$$$$
>  <compound>
CN(C)C/C=C/C(=O)Nc1ccc(C(=O)N2CCCC(Nc3ncc(Cl)c(-c4c[nH]c5ccccc45)n3)C2)cc1 (stereo not drawn)

>  <Population Normal (%)>
99

$$$$

Here is the next item to consider.
Query string: Dear colleague, I am looking for the recorded Population Normal (%) of the following compound: Cn1c(Nc2c(Cl)cccc2Cl)nc2ccc3nc[nH]c(=O)c3c21
Result string: 100

----------
System: HEK-293T
Test: Multiplex assay against HEK293T
Format: toxicity, cell-based
Conditions: human, 48 h, 10 µM, compound concentration 10 uM, number of replicates 2
Mark each entry label 1 if its Population Hoechst High Intensity Objects (%) sits below 10%, and label 0 for all others.

Past entries and their recorded results:
>  <molecule>
COC(=O)c1ccc2c(c1)NC(=O)/C2=C(\Nc1ccc(-c2nccn2C)cc1)c1ccccc1

>  <experimental_target>
HEK-293T

>  <classification>
label 0

$$$$
>  <molecule>
CN(C)C/C=C/C(=O)Nc1cccc(S(=O)(=O)N2CCC(NC(=O)c3n[nH]cc3NC(=O)c3c(Cl)cc(Cl)cc3Cl)CC2)c1

>  <experimental_target>
HEK-293T

>  <classification>
label 0

$$$$
>  <molecule>
Cc1cc(-c2cnc(N)c3c(-c4ccc5scnc5c4)csc23)n(C)n1

>  <experimental_target>
HEK-293T

>  <classification>
label 0

$$$$
>  <molecule>
Br.Oc1cc2c(cc1O)C(c1ccccc1)CNCC2 (stereo not given)

>  <experimental_target>
HEK-293T

>  <classification>
label 1

$$$$

Query string: Does the reported Population Hoechst High Intensity Objects (%) of the following molecule sit strictly below 10%? Cn1c(Nc2c(Cl)cccc2Cl)nc2ccc3nc[nH]c(=O)c3c21
Result string: label 1

----------
Tested on: Fibroblast
Assay: Multiplex assay against human fibroblast
Format: toxicity, cell-based
Settings: 24 h, 10 µM, compound concentration 10 uM, number of replicates 2
Recorded Population Membrane Permeable-Phenotype (%), one value per entry.
Give me the value, and tack the unit on after it.

// solved cases for Population Membrane Permeable-Phenotype (%) follow
>  <molecule>
COc1cc(N2CCN(C)CC2)ccc1Nc1ncc2c(n1)N(C)c1ccccc1C(=O)N2CC(F)(F)F

>  <data_value>
2%

$$$$
>  <molecule>
Cn1cc(-c2ccc(N(C(=O)NCc3ccccc3)[C@H]3CC[C@H](Nc4ccc(C#N)cn4)CC3)cc2)ccc1=O

>  <data_value>
18%

$$$$
>  <molecule>
Br.Oc1cc2c(cc1O)C(c1ccccc1)CNCC2 (centres undefined)

>  <data_value>
1%

$$$$

Here is the next item to consider.
Query string: Dear colleague, I am looking for the recorded Population Membrane Permeable-Phenotype (%) of the following molecule: CN1CCN(C(=O)Cc2ccc(N/C(=C3\C(=O)Nc4cc(Cl)ccc43)c3ccccc3)cc2)CC1
Result string: 2%

----------
Tested on: Fibroblast
Assay: Multiplex assay against human fibroblast
Assay type: toxicity, cell-based
Details: 12 h, 10 µM, compound concentration 10 uM, number of replicates 2
measured_property: Population Mitochondria Different-Phenotype (%)
Give the value in % but do not write % after it.

Query string: Dear colleague, I am looking for the recorded Population Mitochondria Different-Phenotype (%) of the following compound: CN1CCN(C(=O)Cc2ccc(N/C(=C3\C(=O)Nc4cc(Cl)ccc43)c3ccccc3)cc2)CC1
Result string: 2

Query string: And then Cn1cc(-c2ccc(N(C(=O)NCc3ccccc3)[C@H]3CC[C@H](Nc4ccc(C#N)cn4)CC3)cc2)ccc1=O , what is it?
Result string: 3

Query string: And then COC(=O)c1ccc2c(c1)NC(=O)/C2=C(\Nc1ccc(-c2nccn2C)cc1)c1ccccc1 , what is it?
Result string: 2

Query string: And then CCC(=O)O[C@@H](OP(=O)(CCCCc1ccccc1)CC(=O)N1C[C@H](C2CCCCC2)C[C@H]1C(=O)[O-])C(C)C.[Na+] (some centres undefined) , what is it?
Result string: 0

----------
Test system: U2OS
Assay: Multiplex assay against U2OS
Type: toxicity, cell-based
Details: human, 48 h, 10 µM, compound concentration 10 uM, number of replicates 2
Recorded Population Mitotic Cells (%), one value per entry.

// solved cases for Population Mitotic Cells (%) follow
>  <compound_string>
CS(=O)(=O)c1ccc(C(=O)Nc2cccc(COc3ccc(Br)cc3CNCCO)c2)c(Cl)c1.O=CO

>  <data_value>
8%

$$$$
>  <compound_string>
Fc1cccc(-n2cnc3c(NCc4nc5ccc(F)c(F)c5[nH]4)nc(N4CCOCC4)nc32)c1

>  <data_value>
0%

$$$$
>  <compound_string>
COc1cc(OC)cc(-c2cc3cnc(N)nc3nc2NC(=O)NC(C)(C)C)c1

>  <data_value>
33% [middle of 4 runs]

$$$$

Here is the next item to consider.
Query string: Dear colleague, I am looking for the recorded Population Mitotic Cells (%) of the following compound: CN(C)C/C=C/C(=O)Nc1cccc(S(=O)(=O)N2CCC(NC(=O)c3n[nH]cc3NC(=O)c3c(Cl)cc(Cl)cc3Cl)CC2)c1
Result string: 6%

----------
System: Fibroblast
Test: Multiplex assay against human fibroblast
Type: toxicity, cell-based
Conditions: 48 h, 1 µM, compound concentration 1 uM, number of replicates 2
measured_property: Population Hoechst High Intensity Objects (%)
Give the value in % but do not write % after it.

// solved cases for Population Hoechst High Intensity Objects (%) follow
>  <compound>
COc1c(OCCCN2CCOCC2)ccc2c1N=C(NC(=O)c1cnc(N)nc1)N1CCN=C21 [COPANLISIB]

>  <data_value>
0

$$$$
>  <compound>
COc1cc2nc(-c3cc(F)ccc3O)nc(N[C@@H]3CNC[C@H]3C(C)(C)O)c2cc1OC.Cl.Cl

>  <data_value>
0

$$$$

Here is the next item to consider.
Query string: Dear colleague, I am looking for the recorded Population Hoechst High Intensity Objects (%) of the following compound: CC(=O)N(CCN(C)C)c1ccc(N/C(=C2\C(=O)Nc3cc(Cl)ccc32)c2ccccc2)cn1
Result string: 0

----------
System: HEK-293T
Experiment: Multiplex assay against HEK293T
Type: toxicity, cell-based
Conditions: human, 48 h, 1 µM, compound concentration 1 uM, number of replicates 2
measured_property: Population Pyknosed Nuclei (%)
Give me the value, and tack the unit on after it.

// solved cases for Population Pyknosed Nuclei (%) follow
>  <molecule>
O=S(=O)(c1ccccc1)N(CC(F)(F)F)c1ccc(C(O)(C(F)(F)F)C(F)(F)F)cc1 [T091317]

>  <Population Pyknosed Nuclei (%)>
3%

$$$$
>  <molecule>
O=C(Nc1ccc(Cl)c(-c2ccccn2)c1)c1cccc(COc2ccc(Br)cc2CNCCO)c1.O=CO

>  <Population Pyknosed Nuclei (%)>
4%

$$$$
>  <molecule>
O=C1CCCN1CCNc1nc(Nc2ccc(Cl)c(Cl)c2)ncc1C(F)(F)F

>  <Population Pyknosed Nuclei (%)>
3%

$$$$
>  <molecule>
CN(C)C/C=C/C(=O)Nc1cc2c(Nc3ccc(F)c(Cl)c3)ncnc2cc1OC[C@@H]1CCCO1

>  <Population Pyknosed Nuclei (%)>
4%

$$$$

Query string: Dear colleague, I am looking for the recorded Population Pyknosed Nuclei (%) of the following molecule: Cn1cc(-c2ccc(N(C(=O)NCc3ccccc3)[C@H]3CC[C@H](Nc4ccc(C#N)cn4)CC3)cc2)ccc1=O
Result string: 3%

Query string: And then COc1cc(N2CCN(C)CC2)ccc1Nc1ncc2c(n1)N(C)c1ccccc1C(=O)N2CC(F)(F)F , what is it?
Result string: 3%
